- Tested on: C. difficile
- MEASUREMENT DESCRIPTION: agar dilution MIC assay of anaerobic bacteria
- Type: cell-based, Clostridium difficile
- CONDITION SET: Clostridioides difficile, C. diff., Strain no. 3581, Table 3; read-out: MIC
What MIC was measured for each of the following?
I only need the number, in µg/mL, no unit after it.

Cc1ncc([N+](=O)[O-])n1CCO [metronidazole, reference compound] on C. difficile gives MIC = 1

O=c1[nH]c(NCc2ccc(Cl)c(Cl)c2)nc2ncn(CCCCCN3CCOCC3)c12 [Compound 359E] on C. difficile gives MIC = 2

Cl.O=c1cc(NCc2ccc(Cl)c(Cl)c2)[nH]c(=O)n1CCOCCN1CCOCC1 [Compound 240D] on C. difficile gives MIC = 8

O=c1[nH]c(NCc2ccc(Cl)c(Cl)c2)nc2ncn(CCOCCN3CCOCC3)c12 [Compound 360A] on C. difficile gives MIC = 8
